system: Pseudomonas aeruginosa; test: Antimicrobial activity against Pseudomonas aeruginosa CICC 21625 clinical isolates after 24 hrs by NCCLS-protocol based assay; assay type: functional; details: CICC 21625, 24 h
Listing of recorded MIC95 by entry.

# substance, tested system, MIC95
data = [
    ("H-IKPIIKPIIKPIIKPIIKPIIKPIIKPIIKPI-NH2", "Pseudomonas aeruginosa", "> 64 µM"),
    ("H-LKPLLKPLLKPLLKPLLKPLLKPL-NH2", "Pseudomonas aeruginosa", "64 µM"),
    ("H-IRPIIRPIIRPIIRPI-NH2", "Pseudomonas aeruginosa", "> 64 µM"),
]

The substance H-VRPVVRPVVRPVVRPVVRPVVRPVVRPV-NH2 showed MIC95 equal to > 64 µM

---

system: Escherichia coli; test: Bactericidal activity against Escherichia coli 078 incubated for 4 hrs followed by culture spread on agar plates and cultured overnight; type: functional; details: Escherichia coli, 078, 4 h; read-out: MBC>99.9
metric name: MBC

# substance, tested system, MBC
rows = [
    ("H-IKPIIKPIIKPIIKPIIKPI-NH2", "Escherichia coli", "> 64 µM"),
    ("H-VRPVVRPVVRPVVRPVVRPVVRPV-NH2", "Escherichia coli", "> 64 µM"),
    ("H-IKPIIKPIIKPIIKPIIKPIIKPIIKPIIKPI-NH2", "Escherichia coli", "> 64 µM"),
    ("H-VKPVVKPVVKPVVKPVVKPVVKPV-NH2", "Escherichia coli", "> 64 µM"),
]

# input for lookup
The substance H-IKPIIKPIIKPIIKPI-NH2 showed MBC equal to > 64 µM

---

Listing of recorded MBC by entry.
test system: Acinetobacter baumannii; assay: Bactericidal activity against Acinetobacter baumannii incubated for 4 hrs followed by culture spread on agar plates and cultured overnight; format: functional; details: read-out: MBC>99.9
Number only, in µM; omit the unit.

Example cases with answers are listed next.
# substance, measured result
rows = [
    ("H-LRPLLRPLLRPLLRPLLRPL-NH2", 4),
    ("H-LRPLLRPLLRPLLRPL-NH2", 8),
    ("H-LRPLLRPLLRPLLRPLLRPLLRPLLRPL-NH2", 1),
    ("H-IKPIIKPIIKPIIKPIIKPIIKPI-NH2", 16),
    ("H-IRPIIRPIIRPIIRPIIRPI-NH2", 4),
]

# input for lookup
The substance H-LKPLLKPLLKPLLKPL-NH2 showed MBC equal to 8

---

Listing of recorded log10 MIC95 by entry.
tested on: Escherichia coli; assay: Antimicrobial activity against Escherichia coli 078 after 24 hrs by NCCLS-protocol based assay; format: functional; conditions: Escherichia coli, 078, 24 h
A difference of one corresponds to tenfold MIC95; all values are log10 with MIC95 in µM.

Example cases with answers are listed next.
# substance, measured result
records = [
    ("H-IRPIIRPIIRPIIRPIIRPIIRPIIRPIIRPI-NH2", 0.30),
    ("H-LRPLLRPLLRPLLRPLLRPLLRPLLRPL-NH2", 0.00),
    ("H-IRPIIRPIIRPIIRPIIRPI-NH2", 0.90),
    ("H-LKPLLKPLLKPLLKPLLKPLLKPL-NH2", 0.30),
]

The substance H-IRPIIRPIIRPIIRPIIRPIIRPIIRPI-NH2 showed log10 MIC95 equal to 0.00

The substance H-IKPIIKPIIKPIIKPIIKPIIKPIIKPI-NH2 showed log10 MIC95 equal to 1.20

The substance H-LRPLLRPLLRPLLRPLLRPL-NH2 showed log10 MIC95 equal to 0.60

The substance H-LKPLLKPLLKPLLKPLLKPLLKPLLKPL-NH2 showed log10 MIC95 equal to 0.30

The substance H-LKPLLKPLLKPLLKPLLKPL-NH2 showed log10 MIC95 equal to 0.60

The substance H-LKPLLKPLLKPLLKPL-NH2 showed log10 MIC95 equal to 1.51

The substance H-VRPVVRPVVRPVVRPVVRPVVRPV-NH2 showed log10 MIC95 equal to 1.81

---

test system: Pseudomonas aeruginosa; experiment: Antimicrobial activity against Pseudomonas aeruginosa CICC 21625 clinical isolates after 24 hrs by NCCLS-protocol based assay; assay type: functional; conditions: CICC 21625, 24 h
Listing of recorded MIC95 by entry.
Number only, in µM; omit the unit.

Example cases with answers are listed next.
# substance, metric name, measure unit, measured result
records = [
    ("H-LKPLLKPLLKPLLKPLLKPLLKPLLKPL-NH2", "MIC95", "µM", 8),
    ("H-LKPLLKPLLKPLLKPLLKPLLKPLLKPLLKPL-NH2", "MIC95", "µM", 4),
]

# input for lookup
The substance H-LRPLLRPLLRPLLRPL-NH2 showed MIC95 equal to 64

---

Listing of recorded MBC by entry.
tested on: Escherichia coli; experiment: Bactericidal activity against Escherichia coli ATCC 25922 incubated for 4 hrs followed by culture spread on agar plates and cultured overnight in presence of ZnCl2; format: functional; conditions: ATCC 25922, 4 h, read-out: MBC>99.9
Number only, in µM; omit the unit.

Example cases with answers are listed next.
# substance, MBC / µM
rows = [
    ("H-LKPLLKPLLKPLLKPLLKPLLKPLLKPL-NH2", 1),
    ("H-LRPLLRPLLRPLLRPLLRPLLRPL-NH2", 2),
]

# input for lookup
The substance H-IRPIIRPIIRPIIRPIIRPIIRPIIRPI-NH2 showed MBC equal to 2

---

tested on: Escherichia coli; assay: Bactericidal activity against Escherichia coli ATCC 25922 incubated for 4 hrs followed by culture spread on agar plates and cultured overnight in presence of 50% serum albumin; format: functional; details: ATCC 25922, 4 h, read-out: MBC>99.9
metric name: MBC

Example cases with answers are listed next.
# substance, measured result
rows = [
    ("H-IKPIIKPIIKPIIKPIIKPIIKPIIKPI-NH2", "> 128 µM"),
    ("H-IKPIIKPIIKPIIKPIIKPIIKPI-NH2", "> 128 µM"),
]

Value (MBC, Escherichia coli) for record H-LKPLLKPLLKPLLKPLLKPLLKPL-NH2 = > 128 µM

---

test system: Pseudomonas aeruginosa; test: Bactericidal activity against Pseudomonas aeruginosa ATCC 27853 incubated for 4 hrs followed by culture spread on agar plates and cultured overnight; type: functional; details: ATCC 27853, 4 h, read-out: MBC>99.9
metric name: MBC

# substance, tested system, MBC
measured = [
    ("H-VRPVVRPVVRPVVRPVVRPVVRPVVRPV-NH2", "Pseudomonas aeruginosa", "> 64 µM"),
    ("H-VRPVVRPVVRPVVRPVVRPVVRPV-NH2", "Pseudomonas aeruginosa", "> 64 µM"),
    ("H-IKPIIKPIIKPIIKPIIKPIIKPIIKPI-NH2", "Pseudomonas aeruginosa", "> 64 µM"),
    ("H-VKPVVKPVVKPVVKPVVKPVVKPV-NH2", "Pseudomonas aeruginosa", "> 64 µM"),
    ("H-LKPLLKPLLKPLLKPL-NH2", "Pseudomonas aeruginosa", "> 64 µM"),
    ("H-IKPIIKPIIKPIIKPIIKPIIKPI-NH2", "Pseudomonas aeruginosa", "> 64 µM"),
]

# input for lookup
The substance H-IRPIIRPIIRPIIRPI-NH2 showed MBC equal to > 64 µM

---

test system: Pseudomonas aeruginosa; assay: Antimicrobial activity against Pseudomonas aeruginosa CICC 21630 clinical isolates after 24 hrs by NCCLS-protocol based assay; type: functional; settings: CICC 21630, 24 h
metric name: MIC95

Example cases with answers are listed next.
# substance, MIC95
data = [
    ("H-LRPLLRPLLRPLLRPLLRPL-NH2", "16 µM"),
    ("H-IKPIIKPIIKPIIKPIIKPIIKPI-NH2", "> 64 µM"),
    ("H-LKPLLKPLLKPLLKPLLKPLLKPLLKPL-NH2", "2 µM"),
]

The substance H-LKPLLKPLLKPLLKPL-NH2 showed MIC95 equal to > 64 µM

The substance H-IRPIIRPIIRPIIRPI-NH2 showed MIC95 equal to > 64 µM

The substance H-LRPLLRPLLRPLLRPLLRPLLRPL-NH2 showed MIC95 equal to 8 µM

The substance H-IKPIIKPIIKPIIKPIIKPI-NH2 showed MIC95 equal to > 64 µM

The substance H-LKPLLKPLLKPLLKPLLKPLLKPLLKPLLKPL-NH2 showed MIC95 equal to 4 µM

The substance H-IRPIIRPIIRPIIRPIIRPIIRPIIRPIIRPI-NH2 showed MIC95 equal to > 64 µM

The substance H-VKPVVKPVVKPVVKPVVKPVVKPVVKPV-NH2 showed MIC95 equal to > 64 µM

The substance H-VKPVVKPVVKPVVKPVVKPVVKPV-NH2 showed MIC95 equal to > 64 µM

The substance H-IKPIIKPIIKPIIKPI-NH2 showed MIC95 equal to > 64 µM

The substance H-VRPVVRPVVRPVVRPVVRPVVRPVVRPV-NH2 showed MIC95 equal to > 64 µM

The substance H-IRPIIRPIIRPIIRPIIRPIIRPI-NH2 showed MIC95 equal to > 64 µM
